TEST: Metabolic stability in liver microsomes (MLM)
Type: in vitro ADME, mice
ASSAY_CONTEXT: percent remaining at 60 min, 1 μM compound, 0.25 mg/mL protein, 1 mM NADPH
QUANTITY_KIND: Met Stab % (60 mins) MLM (%)

Record excerpt, results attached:
>  <MOLECULE>
CN1C(=O)/C(=N/Nc2nc3ccccc3s2)c2ccccc21 [7-115]

>  <UNIT_NAME>
%

>  <Met Stab % (60 mins) MLM>
2

$$$$
>  <MOLECULE>
N#Cc1ccc2c(c1)C/C(=N/Nc1nc3ccccc3s1)C2=O [7-93]

>  <UNIT_NAME>
%

>  <Met Stab % (60 mins) MLM>
39

$$$$
>  <MOLECULE>
Cc1ccc2c(c1)C/C(=N/Nc1nc3ccccc3s1)C2=O [7-96]

>  <UNIT_NAME>
%

>  <Met Stab % (60 mins) MLM>
22

$$$$
>  <MOLECULE>
COC(=O)C1/C(=N/Nc2nc3ccccc3s2)Cc2ccccc21 (stereo not drawn) [7-68]

>  <UNIT_NAME>
%

>  <Met Stab % (60 mins) MLM>
0

$$$$

P. CC1(C)C/C(=N/Nc2nc3ccccc3s2)c2ccccc21 [7-53]
Q. c1ccc2sc(N/N=C3/CCc4ccncc43)nc2c1 [7-66]
Could you tell me which of these two has the smaller Met Stab % (60 mins) MLM figure? First: P Second: Q Please reply using the label of the selected record.
Q
